Data origin, for the record: PubChem BioAssay (NCI)

Below is a list of entries, each paired with its recorded TGI value.
tested on: MCF7 breast; experiment: NCI tumour cell line growth inhibition, 48 h

Entry `Cc1ccc(-c2c3c(N)nc(-c4ccncc4)nc3nc3c2c(C)nn3-c2ccccc2)cc1` needs its TGI filled in; supply it.
24.4 µM

Entry `O=C(NCCSSCCNC(=O)/C(Cc1ccc(O)c(Br)c1)=N/O)/C(Cc1ccc(O)c(Br)c1)=N/O` needs its TGI filled in; supply it.
8.21 µM

Entry `Clc1ccc(/C=C/c2nc(-c3ccc(Cl)cc3)cn3c2nc2ccccc23)cc1` needs its TGI filled in; supply it.
> 100 µM

Entry `CCCC(=O)n1[nH]c(=O)n(C(C)(C)C)c1=O` needs its TGI filled in; supply it.
> 100 µM

Entry `O=C(Nc1sccc1S(=O)(=O)c1ccc(Cl)cc1)c1ccc(Cl)cc1Cl` needs its TGI filled in; supply it.
> 100 µM

Entry `c1ccc(N=C2C(=Nc3ccccc3)N(C3CCCCC3)C(=NC3CCCCC3)N2c2ccccc2)cc1` needs its TGI filled in; supply it.
> 100 µM

Entry C=CCC1(O)C(=O)OC2C(O)COC21O (stereo not given) needs its TGI filled in; supply it.
> 100 µM

Entry COc1ccc(C2=NNC(c3cc(Cc4ccc(O)c(C5CC(c6ccc(OC)cc6)=NN5)c4)ccc3O)C2)cc1 (stereo not given) needs its TGI filled in; supply it.
15 µM

Entry `Cc1ccc(N(C)S(=O)(=O)c2ccccc2)cc1` needs its TGI filled in; supply it.
> 100 µM

Entry `Cc1ccccc1C(=O)NC(O)(C(F)(F)F)C(F)(F)F` needs its TGI filled in; supply it.
> 100 µM

###

Below is a list of entries, each paired with its recorded TGI value.
system: A498 renal; assay: NCI tumour cell line growth inhibition, 48 h
Give a bare numeral; the unit µM is implied.

Examples with their reported TGI follow.
INSERT INTO measurements (structure_smiles, measured_quantity, test_result) VALUES
  ('Cc1cc(N2CCN(C)CC2)nc(N(CCNc2ccnc3cc(Cl)ccc23)Cc2ccco2)n1', 'TGI', 17.3),
  ('Cc1ccc2c(n1)C(=O)C(Cl)=C(Nc1ccc(N3CCN(C)CC3)cc1)C2=O', 'TGI', 25.6),
  ('COC(=O)c1c2c(c(C)[n+]([O-])c1C)C(=O)C=C(NCc1ccc(Br)cc1)C2=O', 'TGI', 2.3);

Write TGI of `Cc1cc(NS(=O)(=O)c2ccc(NC(=O)COc3ccc(-c4cc5ccccc5[nH]4)cc3)cc2)no1` ; system used: A498 renal
6.58

###

system: SW-620 colon; assay: NCI tumour cell line growth inhibition, 48 h
Below is a list of entries, each paired with its recorded TGI value.

Examples with their reported TGI follow.
INSERT INTO results (compound, system, measured_quantity, test_result) VALUES
  ('O=NNc1ccc(Sc2ccc3ccccc3c2)cn1', 'SW-620 colon', 'TGI', '> 100 µM'),
  ('S=C(Nc1ccc(Cl)cc1)SC1CCCCC1', 'SW-620 colon', 'TGI', '> 100 µM'),
  ('CC1C2CC(CC2O)C1(C)C (stereo unspecified)', 'SW-620 colon', 'TGI', '> 100 µM');

Entry `c1ccc(-c2sc(-c3ccccc3)c3c2C2CCC3C2)cc1` needs its TGI filled in; supply it.
> 100 µM

Entry `CCOC(=O)C/C(N)=C(\C#N)C(=O)OCC` needs its TGI filled in; supply it.
> 100 µM

Entry `C[C@]12CC[C@H]3[C@@H](CC=C4C[C@@H](O)CC[C@@]43C)[C@@H]1C[C@H](N1CCOCC1)[C@@H]2O` needs its TGI filled in; supply it.
> 100 µM

Entry `COc1ccc(-c2nnc(Nc3nc(O)c(C4=c5cc(OC(F)(F)F)ccc5=NC4=O)s3)o2)cc1` needs its TGI filled in; supply it.
> 100 µM

###

tested on: KM12 colon; assay: NCI tumour cell line growth inhibition, 48 h; in the data active means GI50 below about 0.43 µM; inactive means the rest
Permitted responses: active, inactive

Dear colleague, could you share the recorded outcome for `Oc1[nH]c2ccc(Cl)cc2c1/C=c1/ccc2c(c1)N=C(c1ccc(C(F)(F)F)cc1)N=2` when you have a moment?
inactive

Dear colleague, could you share the recorded outcome for NC(Cc1ccc(O)cc1)C(=O)N/N=C/c1ccc(N(CCCl)CCCl)cc1 (centres undefined) when you have a moment?
inactive

Dear colleague, could you share the recorded outcome for `O=[N+]([O-])c1ccc(N/N=C/c2ccccc2O)nc1` when you have a moment?
inactive

Dear colleague, could you share the recorded outcome for `COc1cc(-c2nccc3[nH]c(-c4cccc5[nH]ccc45)nc23)cc(OC)c1OC` when you have a moment?
active

Dear colleague, could you share the recorded outcome for `CCN1CCN(CC(=O)Nc2nc3ccc(NCc4ccc(C)cc4)cc3s2)CC1` when you have a moment?
inactive

Dear colleague, could you share the recorded outcome for `Cc1ccc(-c2c3c(N)nc(-c4ccncc4)nc3nc3c2c(C)nn3-c2ccccc2)cc1` when you have a moment?
inactive

Dear colleague, could you share the recorded outcome for `CCOP(=O)(CCN1CCN(CCCCCOc2cc3c(cc2OC)C(=O)N2CCC[C@H]2C=N3)CC1)OCC` when you have a moment?
inactive

Dear colleague, could you share the recorded outcome for `c1cc2ccc3cc2cc1CNCCOCCNCc1ccc2ccc(cc2c1)CNCCOCCNC3` when you have a moment?
inactive

Dear colleague, could you share the recorded outcome for `O=S1CCN(Cc2ccc(-c3ccc4ncnc(Nc5ccc(OCc6ccccc6)c(F)c5)c4c3)o2)CC1` when you have a moment?
inactive

###

system: SK-MEL-2 melanoma; assay: NCI tumour cell line growth inhibition, 48 h
Below is a list of entries, each paired with its recorded TGI value.
Give a bare numeral; the unit µM is implied.

Examples with their reported TGI follow.
INSERT INTO measurements (compound, measured_quantity, test_result) VALUES
  ('O=C(NCCSSCCNC(=O)/C(Cc1ccc(O)c(Br)c1)=N/O)/C(Cc1ccc(O)c(Br)c1)=N/O', 'TGI', 3.26),
  ('Nc1nccc2c1ncn2C1C=C(CO)C(O)C1O (stereo unspecified)', 'TGI', 99.1),
  ('COc1ccccc1N(C(C)=O)C1=C(Cl)C(=O)c2ccccc2C1=O', 'TGI', 4.57),
  ('C[C@@H](Oc1cc(-c2cnn(C3CC4(CNC4)C3)c2)cnc1N)c1c(Cl)ccc(F)c1Cl', 'TGI', 15.1);

Entry `S=C1NCCN1C(=S)NC1CCCCC1` needs its TGI filled in; supply it.
96

###

system: SF-268 CNS; assay: NCI tumour cell line growth inhibition, 48 h
MEASURED QUANTITY: GI50

INSERT INTO assay_data (compound, test_result) VALUES
  ('Cc1cc(C(=O)N2CCN(C)CC2)c2c(=O)n(-c3ccccc3)c(=O)n(CC(O)CN3CCN(c4ncccn4)CC3)c2n1 (stereo not given)', '> 100 µM'),
  ('Cc1ccc(NC(C(=O)c2ccccc2)c2ccccc2)cc1 (stereo not given)', '3.1 µM'),
  ('COc1ccc(C2=NNC(c3cc(Cc4ccc(O)c(C5CC(c6ccc(OC)cc6)=NN5)c4)ccc3O)C2)cc1 (stereo not given)', '17.9 µM'),
  ('C[C@@H](Oc1cc(-c2cnn(C3CC4(CNC4)C3)c2)cnc1N)c1c(Cl)ccc(F)c1Cl', '4.19 µM');

Please turn your attention to the following entry.
Entry COc1cc(C2CC(=O)c3c(C)nn(-c4nc5ccccc5[nH]4)c3C2)cc(OC)c1OC (stereo not given) needs its GI50 filled in; supply it.
8.01 µM

###

tested on: LOX IMVI melanoma; assay: NCI tumour cell line growth inhibition, 48 h; in the data active = GI50 below about 0.43 µM; inactive = the rest
Permitted responses: active, inactive

// known answers, use as guide
INSERT INTO assay_data (compound, class) VALUES
  ('CC(=O)Nc1c(I)c(C(=O)O)c(I)c(N(C)C(C)=O)c1I', 'inactive'),
  ('C[C@@H](Oc1cc(-c2cnn(C3CC4(CNC4)C3)c2)cnc1N)c1c(Cl)ccc(F)c1Cl', 'inactive'),
  ('Cc1ccc2c(n1)C(=O)C(Cl)=C(Nc1ccc(N3CCN(C)CC3)cc1)C2=O', 'inactive');

We now examine a further compound.
Dear colleague, could you share the recorded outcome for `CCc1ccc(Oc2nccc(-c3c(-c4ccc(F)cc4)ncn3C3CCNCC3)n2)cc1` when you have a moment?
inactive

###

tested on: KM12 colon; test: NCI tumour cell line growth inhibition, 48 h; in the data active = GI50 below about 0.43 µM; inactive = the rest
*1 amine or outer side, *2 acyl side, *3 side chain or, on linkers, in order; H or OH if unused. Where a SMILES comes first, the peptide text is derived from it. Bridges are numbered along the chain shown (N, C = ends). Roman numbers before positions name the chains, in order. X23 = CCCCCCCCCCCCCCC(=O)NC(CCCCN[*:2])C(=O)CN1CCCC1C(=O)[*:1]
Permitted responses: yes for active, no for inactive

// known answers, use as guide
INSERT INTO results (compound, system, class) VALUES
  ('N#Cc1ccc(N2Cc3cc(Cl)ccc3OC3=C2C(=O)N(Cc2ccc(F)cc2)C3=O)cc1', 'KM12 colon', 'no'),
  ('Cc1ccn2c(-c3csc(Nc4cccc(O)c4)n3)c(C)nc2c1', 'KM12 colon', 'yes'),
  ('C=C1C(=O)O[C@H]2[C@H]1CC/C(COC(=O)c1cccc3ccccc13)=C\CC[C@@]1(C)O[C@@H]21', 'KM12 colon', 'no');

We now examine a further compound.
Dear colleague, could you share the recorded outcome for CCCCCCCCCCCCCCC(=O)NC(CCCCNC(=O)C1CCCN1C(=O)C(CCCCN)NC(=O)C(CCCCN)NC(=O)C(CCCCN)NC(=O)C(CCCNC(=N)N)NC(=O)C(CCCCN)NC(=O)C(N)C(C)C)C(=O)CN1CCCC1C(=O)NCC(=O)NC(Cc1ccccc1)C(=O)N1CCCC1C(=O)NC(CO)C(=O)NC(Cc1ccc(O)cc1)C(=O)NC(CCCCN)C(=O)NC(CC(C)C)C(=O)NC(CCCNC(=N)N)C(=O)N1CCCC1C(=O)NCC(N)=O (centres undefined) (I: GFPSYKLRPG-NH2 / II: H-VKRKKKP; linker I:N-II:C via X23; configuration not given here) when you have a moment?
no
